Cited source for all entries: PubChem BioAssay AID1259417

protocol-text: M. tuberculosis growth inhibition, HTS (AID 1259417);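 also: bacteria grown with compound for 5 days at 37 °C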
conditions: M. tuberculosis growth inhibition; stronger effect = higher value; concentration not given here
About 760 (69%) of roughly 1,100 compounds were called active. So high a share suggests a set chosen from earlier hits. Some of the results follow.
Provide the recorded inhibition for the entries that follow.
Give bare numbers, in %.

Take a look at these entries with their results.
INSERT INTO assay_data (compound, experimental_result) VALUES
  ('Cc1ccc(Cl)cc1N1CCN(CC(O)COc2ccc(C(=O)c3ccccc3)cc2)CC1 (configuration not stated)', 1.47),
  ('CC(C)C(=O)N1CCN(c2ccc(NC(=O)c3ccc([N+](=O)[O-])o3)cc2)CC1', 100),
  ('O=C(Nc1nnc(-c2ccc3c(c2)CCCC3)o1)c1cc(Cl)sc1Cl', 48.6);

Hey, quick one: what's inhibition for each of these?
1. Cc1ccc(S(=O)(=O)Nc2ccc(NC(=O)Nc3cccc(C(F)(F)F)c3)cc2)cc1
2. CSc1ccc(C(CC(=O)c2ccccc2)Nc2ccc(F)cc2)cc1 (configuration not stated)
3. COc1ccc(C(=O)Nc2cc(OC)c(NC(=O)c3ccco3)cc2OC)cc1
4. CC(C)=CCN1CCN(CCC2=C(C)CCCC2(C)C)CC1CCO (configuration not stated)
5. Cc1cc(OCCCn2ccnc2)ccc1Cl

Given back:
-12.5
21.6
-7.24
-26.9
99.6

State recorded inhibition for all listed compounds.
1. O=C(Nc1nnc(-c2ccc3c(c2)CCCC3)o1)c1ccc(Cl)cc1Cl
2. COc1ccc(-c2nc(NC(=O)c3ccccc3)n[nH]2)cc1OC
3. O=C(c1ccc(Cl)cc1)c1ccc(OCC(O)CN2CCN(Cc3ccccc3)CC2)cc1 (configuration not stated)
4. CCn1ccnc1CN(C)Cc1cn(-c2cc(C)ccc2C)nc1-c1ccccc1
5. O=C(Nc1nnc(-c2ccc3c(c2)CCCC3)o1)c1ccc([N+](=O)[O-])s1
6. CCOC(=O)c1c(NC(=O)c2ccccc2C)sc(C)c1-c1ccc(OC)c(OC)c1
7. CCOC(=O)COc1ccc(S(=O)(=O)N2CCC(C)CC2)cc1
8. O=C(C=Cc1cccc(C(F)(F)F)c1)Nc1cccc(C(F)(F)F)c1

Given back:
1: -9.7; 2: 96.7; 3: -14; 4: 8.97; 5: 93.9; 6: -17.9; 7: 91.2; 8: 6.54

Would you mind giving inhibition for every compound in the list below?
1. CC(C)COc1ccc(-c2nn(-c3ccccc3)cc2C(=O)Nc2nccs2)cc1
2. Cc1ccc(OCC(O)CN2CCN(CC(O)COc3ccc(C)cc3C)CC2)c(C)c1 (configuration not stated)

Given back:
[-24.1, 45.2]

----------
protocol-text: M. tuberculosis growth inhibition, HTS (AID 1259417);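 also: bacteria grown with compound for 5 days at 37 °C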
conditions: M. tuberculosis growth inhibition; stronger effect = higher value; concentration not given here
The whole screen tested about 1,100 compounds, of which about 760 (69%) were called active. The set was probably picked from earlier hits. The list shows a part of the results.
If the reported inhibition equals or exceeds 80%, assign T. If not, assign F.

Record excerpt, results attached:
INSERT INTO results (entry_smiles, label_class) VALUES
  ('COC(=O)CSc1ccc2c(N)c(C(=O)OC)sc2c1', 'F'),
  ('COc1ccc(CNC(=O)c2c(N)nc3sc4c(c3c2C(F)(F)F)CCC4)cc1', 'F'),
  ('Cc1cccc(OCc2nnc(SCC(=O)OC3CCCCC3)o2)c1', 'T'),
  ('O=C(Oc1c(Cl)cc(Cl)c2cccnc12)c1cc(S(=O)(=O)N2CCCCC2)ccc1Cl', 'T'),
  ('COC(=O)CSc1ccc(C#N)c(SCC(=O)OC)c1', 'F');

Asked: Is inhibition at least 80%? Consider Oc1ccc(Br)cc1-c1nc(-c2cccs2)c(-c2cccs2)[nH]1
Given back: F

----------
protocol-text: M. tuberculosis growth inhibition, HTS (AID 1259417);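 also: bacteria grown with compound for 5 days at 37 °C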
conditions: M. tuberculosis DsRed fluorescence growth inhibition; stronger effect = higher value; concentration not given here
Among all 1,100 compounds or so, about 760 (69%) were called active. The set was probably picked from earlier hits. The list shows a part of the results.
So basically: inhibition at 70% or higher? That is t. Lower than 70%? That is f.

Illustrative cases are given below, each with its answer.
INSERT INTO results (compound, label_class) VALUES
  ('CCc1ccc(Oc2coc3cc(OC(C)C(=O)OC)ccc3c2=O)cc1 (stereo not drawn)', 'f'),
  ('Cc1ccc(C(=O)Nc2nnc(C3=COCCO3)o2)cc1', 'f');

Asked: Has O=C(Nc1nnc(-c2ccc3c(c2)CCCC3)o1)c1ccc(Cl)cc1Cl a recorded inhibition greater than or equal to 70%?
Given back: f

Asked: Determine whether this compound has inhibition no lower than 70%: CC(=O)N(C)c1ccc(OCC(O)Cn2c3ccc(Cl)cc3c3cc(Cl)ccc32)cc1 (stereo not drawn)
Given back: f

Asked: Answer whether inhibition of Cc1nc2ccccc2n1CC(O)COc1ccc(C2C=CCC2)cc1 (stereo not drawn) is greater than or equal to 70%.
Given back: t

Asked: Dear colleague, could you confirm whether Clc1ccc2c(c1)C1=C(C(c3ccncc3)O2)C(c2ccc(Br)cc2)n2ncnc2N1 (stereo not drawn) has inhibition at or above 70%?
Given back: t

Asked: Has CC(C)N=c1cc2n(-c3ccc(Cl)cc3)c3ccccc3nc-2cc1Nc1ccc(Cl)cc1 a recorded inhibition greater than or equal to 70%?
Given back: t

Asked: Can O=C(c1cccs1)N(CCCn1ccnc1)c1nc2c(F)cc(F)cc2s1 be said to have inhibition at or above 70%?
Given back: t

Asked: Hi, just wondering whether COC(=O)COc1cccc(NC(=O)c2ccc(Cl)cc2)c1 shows inhibition of 70% or higher.
Given back: f

Asked: Decide: is the reported value of inhibition for COC(=O)COc1cccc(NC(=O)c2cccc(C)c2)c1 equal to or greater than 70%?
Given back: f

Asked: Does the reported inhibition for Cc1ccc(NC(=O)CSc2ccc(-c3ccccn3)nn2)cc1 fall at or above the 70% mark?
Given back: t

Asked: Hello, I need to know if O=C(Nc1cccc(Br)c1)c1ccc([N+](=O)[O-])s1 has measured inhibition not below 70%. Thanks!
Given back: f

Asked: Check this compound for inhibition at or above 70%: O=C(Nc1ccccc1-c1ccccc1)C(Cl)(Cl)Cl
Given back: t

Asked: Quick check, inhibition >= 70%? O=C(Nc1ccc(S(=O)(=O)N2CCC(c3nc4ccccc4[nH]3)CC2)cc1)c1cccc(Cl)c1
Given back: f

Asked: Reported inhibition at or above 70%? O=C(Nc1nnc(C2=COCCO2)o1)c1ccc(F)cc1
Given back: f

Asked: Is inhibition at least 70%? Consider CC12CC3CC(C)(C1)CC(C(=O)Nc1nc4ccccc4s1)(C3)C2
Given back: t

Asked: Check this compound for inhibition at or above 70%: COc1ccc(OC(C)C(=O)Nc2ccc(I)cc2)cc1 (stereo not drawn)
Given back: t

Asked: Kindly determine if inhibition recorded for CCOC(=O)CSc1ccc(-c2nc3cc(C)c(C)cc3[nH]2)cn1 is above or exactly 70%.
Given back: t

Asked: Reported inhibition reaches at least 70% for CSc1cccc(-c2nnc(NC(=O)c3ccc([N+](=O)[O-])s3)o2)c1 ?
Given back: f

Asked: hey, is inhibition for this one >= 70%? C=CCn1c(O)c(C2=c3ccccc3=NC2=O)sc1=N
Given back: f

Asked: Can c1ccc(-c2nc(NCC3CCCO3)c3ccccc3n2)nc1 (stereo not drawn) be said to have inhibition at or above 70%?
Given back: t

Asked: Does CCc1nc2ccccc2n1CCCOc1ccccc1 have a reported inhibition of at least 70%?
Given back: t

Asked: Check the entry Cc1ccc(C(=O)Nc2nc(-c3ccccc3)c(-c3ccccc3)o2)cc1 : does inhibition equal or exceed 70%?
Given back: t

----------
Exercise: state measured inhibition for each of the compounds provided.
protocol-text: M. tuberculosis growth inhibition, HTS (AID 1259417);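 also: bacteria grown with compound for 5 days at 37 °C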
conditions: M. tuberculosis growth inhibition; stronger effect = higher value; concentration not given here
Hit rate of the full screen: of about 1,100 compounds, about 760 (69%) were called active. The set was probably picked from earlier hits. Some of the results follow.
Numbers only, in %.

// below: answered compounds
INSERT INTO results (compound, experimental_result) VALUES
  ('CCOC(=O)COc1ccc(-c2ccc(C)cc2)cc1', 81.2),
  ('CC(C(=O)OCc1ccccc1)n1cnc2scc(-c3ccc(Br)cc3)c2c1=O (stereo unspecified)', -4.92),
  ('O=C(CSc1nc2ccccc2c(=O)[nH]1)NCc1ccccc1', 100),
  ('c1ccc(CCNc2nc3ccccc3[nH]2)cc1', 32.9),
  ('CCOC(=O)COc1ccc(OCc2ccccc2)cc1', -7.23);

Asked: Endpoint output: inhibition of COc1ccccc1NC(=O)CSc1nc2cc3ccccc3cc2[nH]1 . Value?
Given back: -21.7

----------
protocol-text: M. tuberculosis growth inhibition, HTS (AID 1259417);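 also: bacteria grown with compound for 5 days at 37 °C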
conditions: M. tuberculosis growth inhibition; stronger effect = higher value; concentration not given here
In all, about 1,100 compounds went through this assay and about 760 (69%) were called active. So high a share suggests a set chosen from earlier hits. Some of the results follow.
Everything with inhibition lower than 60% is rule not met; everything else, including exactly 60%, is rule met.

Answered examples (3):
INSERT INTO assay_data (entry_smiles, label_class) VALUES
  ('Cc1scc(C(=O)NCc2ccco2)c1-c1ccccc1', 'rule not met'),
  ('CSc1ncc(C(=O)NCc2ccco2)cn1', 'rule not met'),
  ('O=c1oc(-c2ccccc2)cc(Cl)c1Cl', 'rule met');

Asked: Please indicate if the recorded inhibition for CN(C)c1ccc(Nc2nc(-c3ccccn3)cs2)cc1 meets or exceeds 60%.
Given back: rule not met

Asked: For this compound, is measured inhibition 60% or higher? CCOC(=O)COc1cc(OCC(=O)OCC)c2c(=O)cc(-c3ccccc3)oc2c1
Given back: rule met

Asked: Reported inhibition reaches at least 60% for COC(=O)CSc1ncnc2c1sc1nc3c(cc12)COC(C)(C)C3 ?
Given back: rule not met

Asked: Determine whether this compound has inhibition no lower than 60%: O=C(OCC#CCSc1nnc(-c2ccccc2)o1)c1ccco1
Given back: rule not met

Asked: Does the compound CSc1ncc(C(=O)Nc2cccc(C(F)(F)F)c2)cn1 have recorded inhibition that is 60% or more?
Given back: rule not met
